Values were extracted from paper PMC11266098.

Assay: Cell viability assay (MTT)
Assay type: cell-based, murine
Conditions: mouse, B16F10 cells, 0–20 μM
Quantity measured: viability at 48 h

Reported viability at 48 h ( C=C(C)[C@H](CC=C(C)C)Cc1c(O)cc(OC)c2c1O[C@H](c1ccc(O)cc1O)CC2=O ) = > 80%

----------
Assay: Cell viability assay (MTT)
Format: cell-based, murine
Details: mouse, B16F10 cells, 0–100 μM
Quantity measured: viability at 48 h

Measured viability at 48 h of COc1c2occc2cc2ccc(=O)oc12 [8-MOP, 8-methoxypsoralen, reference compound] : > 80%

----------
Test: Cell viability assay (MTT)
Type: cell-based, murine
Settings: mouse, B16F10 cells, 0–5 μM
Quantity measured: viability at 48 h

// recorded viability at 48 h for COc1cc(O)c2c(=O)c(O)c(-c3ccc(O)cc3)oc2c1CC=C(C)C [IAI, isoanhydroicaritin] : > 80%
